Biological target: T1, hFc-mC3d fusion protein (human; mouse, UniProt P01027 1002-1303, limits assumed)
T1 construct: domain: C3d; not shown: human IgG Fc (hFc), captured by an anti-human IgG CH2 mAb
T1 sequence (P01027 1002-1303 limits assumed): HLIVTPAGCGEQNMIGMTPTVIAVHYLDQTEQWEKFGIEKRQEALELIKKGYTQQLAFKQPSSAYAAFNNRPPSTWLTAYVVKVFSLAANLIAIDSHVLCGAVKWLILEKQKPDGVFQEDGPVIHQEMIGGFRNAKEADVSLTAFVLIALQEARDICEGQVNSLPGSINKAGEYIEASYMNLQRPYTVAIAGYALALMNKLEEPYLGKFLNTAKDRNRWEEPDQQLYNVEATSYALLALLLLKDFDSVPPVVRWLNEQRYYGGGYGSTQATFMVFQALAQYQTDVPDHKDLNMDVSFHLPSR
Experiment: SPR (Biacore X100), Fab over captured hFc-mC3d
Experimental: Kinetic and thermodynamic parameters characterizing the binding of purified Fabs to hC3d or mC3d was performed by surface plasmon resonance (SPR) in a Biacore X100 instrument (GE Healthcare). Using mouse anti-human IgG CH2 mAb immobilized on a CM5 sensor chip, hFc-hC3d or hFc-mC3d fusion proteins were captured at a density <400 RU. Each sensor chip included an empty flow cell for instantaneous background subtraction. […]
Recorded koff, one value per entry.
Readout name: koff

Binder	Readout name	Result value
Ab5 Fab (His-tagged rabbit/human chimeric anti-C3d Fab) (Fab, V domains shown, Fab with rabbit Vκ/human Cκ/rabbit VH, His-tagged; also called Ab5 (κ)) VH: QSLEESGGRLVTPGTPLTLTCTVSGFSLSTYTLGWVRQAPGKGLEYIGWIDSSGSAYYASWAKGRFTISKASSTTVDLKMAGLTTEDTATYFCASGNTGGDPLYYGMDPWGPGTLVTVSS VL: DPVLTQTPSSTSAAVGGTVTIKCQASQNIGRWLAWYQQKPGQPPKLLIYRASDLASGVPSRFKGSGSGTQFTLTISGVQREDAATYYCLGSYSSSDSAFGGGTEVVVK	koff	0.00568 s⁻¹
Ab2 Fab (His-tagged rabbit/human chimeric anti-C3d Fab) (Fab, V domains shown, Fab with rabbit Vκ/human Cκ/rabbit VH, His-tagged; also called Ab2 (κ)) VH: QSVEESGGRLVTPGTPLTLTCTVSGFSLSSYAMTWVRQAPGKGLEWIGVIGTSGMRYYANWAKGRFTISKTSTTVDLKITSPTTEDTATYFCARANFYVGNDESTDAFDPWGPGTLVTVSS VL: ALVMTQTPPSLSASVGETVRIRCLASEDIYNTISWYQQKPGKPPTLLIYGASNLKSGVPPRFSGSGSGTDYTLTIGGVQSEDAATYYCLGGYSYSSTGLTFGAGTKVEIK	koff	0.00174 s⁻¹
Ab3 Fab (His-tagged rabbit/human chimeric anti-C3d Fab) (Fab, V domains shown, Fab with rabbit Vκ/human Cκ/rabbit VH, His-tagged; also called Ab3 (κ)) VH: QKQLVESGGRLVTPGGSLTLTCTISGIDLNTYGMTWVRQAPGKGLEYIGIIVSSGNTYYANWAQGRFTISKTSTTVDLKMTSLTASDTATYFCARGLGRAYSSGYGMDGWGPGTLVTVSS VL: DPVLTQTPSSTSAAVGGTVTIKCQASQNIYTSLAWYQQKPGQPPKLLIYGASNLASGVPSRFKGSRSGTEYTLTISGVEREDAATYYCLGSYTQIDTTFGGGTKLEIK	koff	0.0227 s⁻¹
Ab4 Fab (His-tagged rabbit/human chimeric anti-C3d Fab) (Fab, V domains shown, Fab with rabbit Vκ/human Cκ/rabbit VH, His-tagged; also called Ab4 (κ)) VH: QSLEESGGRLVTPGTPLTLTCTVSGFSLSRYTMAWVRQAPGKGLEYIGWIDSSGSTYYASWAKGRFTISKTSSTTVDLKMTSLTTEDTATYFCASGNDGGDPLYYGMDPWGPGTLVTVSS VL: DGVMTQTPSSTSAAVGGTVTIKCQASQSIRSWLSWYQQKPGQPPKLLIYEASKLASGVPSRFKGSRSGTEYTLAISGVQREDAATYYCLGSIASDDTAFGAGTNVEIK	koff	0.00801 s⁻¹
